Exercise: for every item that follows, state its recorded concentration at 1 h.
assay: GT localization in healthy versus 4T1 tumor bearing lung tissue; type: in vivo, BALB/c mice; settings: female, BALB/c, mouse, lung, intravenous, 1 hour after DcNP, Healthy mice, 50/5 mg/kg GT IV; read-out: Lung
Give bare numbers, in ng/g.

CC(=O)O[C@H]1C(=O)[C@@]2(C)[C@H]([C@H](OC(=O)c3ccccc3)[C@]3(O)C[C@H](OC(=O)[C@H](O)[C@@H](NC(=O)c4ccccc4)c4ccccc4)C(C)=C1C3(C)C)[C@]1(OC(C)=O)CO[C@@H]1C[C@@H]2O; 600

Moving on to the next molecule.
Dear colleague, I am looking for the recorded concentration at 1 h of the following molecule: Nc1ccn([C@@H]2O[C@H](CO)[C@@H](O)C2(F)F)c(=O)n1
7500

###

For each entry below, report its AUC(0-t) value.
test: Pharmacokinetic study of GT DcNP vs CrEL drug combination in mice (Example 1); format: in vivo, BALB/c mice; details: female, BALB/c, mouse, plasma, iv, given in CrEL drug dosage form, GT 50/5 mg/kg IV
Give bare numbers, in ng·h/mL.

CC(=O)O[C@H]1C(=O)[C@@]2(C)[C@H]([C@H](OC(=O)c3ccccc3)[C@]3(O)C[C@H](OC(=O)[C@H](O)[C@@H](NC(=O)c4ccccc4)c4ccccc4)C(C)=C1C3(C)C)[C@]1(OC(C)=O)CO[C@@H]1C[C@@H]2O; 2490

// below: AUC(0-t) requested for another compound
Endpoint output: AUC(0-t) of Nc1ccn([C@@H]2O[C@H](CO)[C@@H](O)C2(F)F)c(=O)n1 . Value?
15300

###

experiment: Pharmacokinetic study of GT in DcNPs compared to CrEL (Example 2), plasma G, T and dFdU; type: in vivo, BALB/c mice; conditions: female, BALB/c, mouse, plasma, iv, 50 mg/kg, GT DcNP; 50/5 mg/kg G/T IV, mice; read-out: MRT (mean residence time)
ENDPOINT: MRT (h)
One number for each entry, in h.

What value of measured MRT is listed for Nc1ccn([C@@H]2O[C@H](CO)[C@@H](O)C2(F)F)c(=O)n1 ?
11.3

###

test: Pharmacokinetic study of GT in DcNPs compared to CrEL (Example 2), plasma G, T and dFdU; format: in vivo, BALB/c mice; conditions: female, BALB/c, mouse, plasma, iv, 50 mg/kg, Control (CrEL suspension); 50/5 mg/kg G/T IV, mice
ENDPOINT: AUC(0-inf) (ng·h/mL)
Numbers only, in ng·h/mL.

Could you tell me which AUC(0-inf) is on file for Nc1ccn([C@@H]2O[C@H](CO)[C@@H](O)C2(F)F)c(=O)n1 [Gemcitabine] ?
15300

###

Consider the following molecules; for each one, report its AUC.
test: Pharmacokinetics of venetoclax-zanubrutinib DcNP's versus free drug in mice; format: in vivo, BALB/C mice; settings: female, BALB/C, mouse, plasma, iv, 600 ug, intravenous free drug injection (600 μg each drug)
One number for each entry, in ng·h/mL.

CC1(C)CCC(CN2CCN(c3ccc(C(=O)NS(=O)(=O)c4ccc(NCC5CCOCC5)c([N+](=O)[O-])c4)c(Oc4cnc5[nH]ccc5c4)c3)CC2)=C(c2ccc(Cl)cc2)C1; 88800

Query molecule follows.
Quick check: AUC of C=CC(=O)N1CCC([C@@H]2CCNc3c(C(N)=O)c(-c4ccc(Oc5ccccc5)cc4)nn32)CC1 ?
8300

###

experiment: Pharmacokinetic study of GT in DcNPs compared to CrEL (Example 2), plasma G, T and dFdU; type: in vivo, BALB/c mice; conditions: female, BALB/c, mouse, plasma, iv, 50 mg/kg, GT DcNP; 50/5 mg/kg G/T IV, mice
ENDPOINT: AUC(0-inf) (µg·h/mL)
Give bare numbers, in µg·h/mL.

// AUC(0-inf) lookup, key: Nc1ccn([C@@H]2O[C@H](CO)[C@@H](O)C2(F)F)c(=O)n1
937

###

assay: GT localization in healthy versus 4T1 tumor bearing lung tissue; format: in vivo, BALB/c mice; conditions: female, BALB/c, mouse, lung/plasma, intravenous, 24 hours after DcNP, 4T1 tumor bearing mice; read-out: Lung/Plasma Ratio
ENDPOINT: Kp at 24 h

Sample Nc1ccn([C@@H]2O[C@H](CO)[C@@H](O)C2(F)F)c(=O)n1 [Gemcitabine] — what was its Kp at 24 h?
0.1

###

Exercise: state measured concentration at 1 h for each of the compounds provided.
Assay: GT localization in healthy versus 4T1 tumor bearing lung tissue
Format: in vivo, BALB/c mice
Conditions: female, BALB/c, mouse, plasma, intravenous, 1 hour after DcNP, Healthy mice; read-out: Plasma
Description: Female BALB/c mice were injected with 2×10^5 4 T1 metastatic breast cancer cells that express luciferase as a marker intravenously by tail vein on day 0. Stable expression of luciferase in these cells allows for bioluminescent monitoring of tumor growth and metastasis. Over a 14-day period, mouse behavior and health conditions were monitored daily and body weight measurements were taken every 2 days. […]
Numbers only, in ng/mL.

CC(=O)O[C@H]1C(=O)[C@@]2(C)[C@H]([C@H](OC(=O)c3ccccc3)[C@]3(O)C[C@H](OC(=O)[C@H](O)[C@@H](NC(=O)c4ccccc4)c4ccccc4)C(C)=C1C3(C)C)[C@]1(OC(C)=O)CO[C@@H]1C[C@@H]2O; 1400

--- query ---
What value of measured concentration at 1 h is listed for Nc1ccn([C@@H]2O[C@H](CO)[C@@H](O)C2(F)F)c(=O)n1 ?
52200

###

Hi there, I'd appreciate the recorded concentration at 3 h for every entry that follows.
experiment: Pharmacokinetic study of GT in DcNPs compared to CrEL (Example 2), plasma G, T and dFdU; type: in vivo, BALB/c mice; conditions: female, BALB/c, mouse, plasma, intravenous, after control CrEL dosing, 50/5 mg/kg G/T IV, mice

O=c1ccn([C@@H]2O[C@H](CO)[C@@H](O)C2(F)F)c(=O)[nH]1; 4340 ng/mL
Nc1ccn([C@@H]2O[C@H](CO)[C@@H](O)C2(F)F)c(=O)n1; 87.3 ng/mL

Now take the following molecule into account.
GET /values?readout=concentration at 3 h&item= CC(=O)O[C@H]1C(=O)[C@@]2(C)[C@H]([C@H](OC(=O)c3ccccc3)[C@]3(O)C[C@H](OC(=O)[C@H](O)[C@@H](NC(=O)c4ccccc4)c4ccccc4)C(C)=C1C3(C)C)[C@]1(OC(C)=O)CO[C@@H]1C[C@@H]2O
194 ng/mL

###

experiment: Pharmacokinetic study of GT in DcNPs compared to CrEL (Example 2), plasma G, T and dFdU; format: in vivo, BALB/c mice; conditions: female, BALB/c, mouse, plasma, iv, GT DcNP; 50/5 mg/kg G/T IV, mice; read-out: C0 (concentration at time 0, back extrapolated)
ENDPOINT: C0

Any idea what its C0 is? The compound is CC(=O)O[C@H]1C(=O)[C@@]2(C)[C@H]([C@H](OC(=O)c3ccccc3)[C@]3(O)C[C@H](OC(=O)[C@H](O)[C@@H](NC(=O)c4ccccc4)c4ccccc4)C(C)=C1C3(C)C)[C@]1(OC(C)=O)CO[C@@H]1C[C@@H]2O
13900 ng/mL

###

assay: Pharmacokinetic study of GT DcNP vs CrEL drug combination in mice (Example 1); type: in vivo, BALB/c mice; details: female, BALB/c, mouse, given in CrEL drug dosage form, GT 50/5 mg/kg IV, plasma, read-out: Cmax
ENDPOINT: Cmax

Param item = CC(=O)O[C@H]1C(=O)[C@@]2(C)[C@H]([C@H](OC(=O)c3ccccc3)[C@]3(O)C[C@H](OC(=O)[C@H](O)[C@@H](NC(=O)c4ccccc4)c4ccccc4)C(C)=C1C3(C)C)[C@]1(OC(C)=O)CO[C@@H]1C[C@@H]2O [Paclitaxel] ; retrieve measured Cmax.
17700 ng/mL

###

assay: Pharmacokinetic study of GT in DcNPs compared to CrEL (Example 2), plasma G, T and dFdU; assay type: in vivo, BALB/c mice; settings: female, BALB/c, mouse, plasma, iv, 5 mg/kg, GT DcNP; 50/5 mg/kg G/T IV, mice; read-out: Vss
ENDPOINT: Vd (L)
Numbers only, in L.

Which Vd value is on record for CC(=O)O[C@H]1C(=O)[C@@]2(C)[C@H]([C@H](OC(=O)c3ccccc3)[C@]3(O)C[C@H](OC(=O)[C@H](O)[C@@H](NC(=O)c4ccccc4)c4ccccc4)C(C)=C1C3(C)C)[C@]1(OC(C)=O)CO[C@@H]1C[C@@H]2O [Paclitaxel] ?
0.01

###

test: GT localization in healthy versus 4T1 tumor bearing lung tissue; format: in vivo, BALB/c mice; conditions: female, BALB/c, mouse, plasma, intravenous, 24 hours after DcNP, Healthy mice; read-out: Plasma
ENDPOINT: concentration at 24 h (ng/mL)
Numbers only, in ng/mL.

Looking for the measured concentration at 24 h of Nc1ccn([C@@H]2O[C@H](CO)[C@@H](O)C2(F)F)c(=O)n1 , can you help?
12700
